All figures here come from the OPERA property sets (Mansouri et al. 2018).

Record form. Attribute: melting point. Fill in for each entry.
Quick note: give the figure in °C, leave out the unit.

Ask: Could you tell me which melting point is on file for CNCCOC(=O)/C=C1/CC[C@H]2[C@@H]([C@@H](O)C[C@@H]3[C@]2(C)CCC[C@]3(C)C(=O)OC)[C@H]1C ?
Reply: 115

Ask: Could you tell me which melting point is on file for Clc1cc(Cl)c2c(c1)Oc1cc(Cl)c(Cl)cc1O2 ?
Reply: 194

Ask: Could you tell me which melting point is on file for CC(=O)CCCC(=O)O ?
Reply: 13.5

Ask: Could you tell me which melting point is on file for CC(=O)Nc1ccc(/N=N/c2cc(C)ccc2O)cc1 ?
Reply: 195

Ask: Could you tell me which melting point is on file for CCOC(=O)C(C#N)=Cc1ccccc1 ?
Reply: 51

Ask: Could you tell me which melting point is on file for CCO ?
Reply: -114

Ask: Could you tell me which melting point is on file for CCCCC(CC)COC(=O)CC(C(=O)OCC(CC)CCCC)S(=O)(=O)[O-].[Na+] (stereo not given) ?
Reply: 176

Ask: Could you tell me which melting point is on file for Cc1ccc([N+](=O)[O-])c(C)c1 ?
Reply: 9

Ask: Could you tell me which melting point is on file for CC[C@]12CCCN3CCc4c(n(c5ccccc45)[C@@](O)(C(=O)OC)C1)[C@@H]32 ?
Reply: 232

Ask: Could you tell me which melting point is on file for Nc1ccc(O)c(C(=O)O)c1 ?
Reply: 283

Ask: Could you tell me which melting point is on file for CCc1ccc(C)c(C)c1 ?
Reply: -66.9

Ask: Could you tell me which melting point is on file for O=C(O)c1cc(Cl)ccc1O ?
Reply: 172

Ask: Could you tell me which melting point is on file for C=C1C2CCC(C2)C1(C)C (stereo not given) ?
Reply: 51.6

Ask: Could you tell me which melting point is on file for CCCCC(C)(C)C ?
Reply: -121

Ask: Could you tell me which melting point is on file for CCOC(=O)C(SP(=S)(OC)OC)c1ccccc1 (stereo not given) ?
Reply: 17.5

Ask: Could you tell me which melting point is on file for Cc1ccc(C(=O)c2ccccc2C(=O)O)cc1 ?
Reply: 146

Ask: Could you tell me which melting point is on file for CCC(=O)Nc1ccc(Cl)c(Cl)c1 ?
Reply: 92

Ask: Could you tell me which melting point is on file for CC[SiH2]CC ?
Reply: -134

Ask: Could you tell me which melting point is on file for O=C1OC(OC2OC(=O)C(Cl)=C2Cl)C(Cl)=C1Cl (stereo not given) ?
Reply: 142

Ask: Could you tell me which melting point is on file for COc1cccc(OC)c1C ?
Reply: 40

Ask: Could you tell me which melting point is on file for CC[C@H]1CN2CCc3cc(OC)c(OC)cc3[C@@H]2C[C@@H]1C[C@@H]1NCCc2cc(O)c(OC)cc21 ?
Reply: 116

Ask: Could you tell me which melting point is on file for O=C1CCc2ccccc2N1 ?
Reply: 164

Ask: Could you tell me which melting point is on file for O=C(O)c1cc(Br)ccc1Br ?
Reply: 157

Ask: Could you tell me which melting point is on file for CCCCNC(=O)c1ccc(Cl)cc1O ?
Reply: 91.5

Ask: Could you tell me which melting point is on file for C1=CC2CCC1C2 ?
Reply: 45

Ask: Could you tell me which melting point is on file for CN(C)c1ccc2ccccc2c1 ?
Reply: 52.5

Ask: Could you tell me which melting point is on file for O=C(O)c1c(F)cccc1Cl ?
Reply: 160

Ask: Could you tell me which melting point is on file for c1ccc2nccnc2c1 ?
Reply: 28

Ask: Could you tell me which melting point is on file for CCCCCCC(=O)CCC ?
Reply: -9

Ask: Could you tell me which melting point is on file for CCCC(=O)c1ccc(Cl)cc1 ?
Reply: 19.5
